# study-target: APOL1 G2 (Homo sapiens, UniProt O14791, DEL388-389)
# Construct: expressed in transfected cells; host or cells: HEK293 T-REx clonal line stably expressing GCaMP6f (HEK T-REx/GCaMP6f/APOL1 G2 K6.3), doxycycline induced
# Sequence (O14791 with tags, fused parts or gaps DEL388-389): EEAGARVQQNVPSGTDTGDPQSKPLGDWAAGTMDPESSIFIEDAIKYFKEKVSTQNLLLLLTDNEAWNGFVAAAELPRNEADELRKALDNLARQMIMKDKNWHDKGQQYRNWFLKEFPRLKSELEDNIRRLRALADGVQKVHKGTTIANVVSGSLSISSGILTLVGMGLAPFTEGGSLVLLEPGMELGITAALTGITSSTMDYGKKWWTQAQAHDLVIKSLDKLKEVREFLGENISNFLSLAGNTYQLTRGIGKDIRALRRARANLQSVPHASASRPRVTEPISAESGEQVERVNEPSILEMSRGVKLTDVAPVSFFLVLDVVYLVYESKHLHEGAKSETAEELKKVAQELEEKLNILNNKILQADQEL
# experimental-protocol: APOL1-mediated calcium transport (calcium influx) assay, HEK T-REx/GCaMP6f/APOL1 G2 K6.3 cells, FLIPR TETRA
# Assay type: cell-based
# condition-set: prevention of calcium influx; geometric mean of at least 2 assay runs; † = average of a technical replicate from a single assay run
Here, each record is paired with measured AC50 data.
recorded-metric: AC50 (nM)

CS(=O)(=O)c1ccc(OCCN2CCC3(CC2)C(=O)Nc2ccc(C#N)cc23)cc1C(F)CF (single isomer, unassigned) [Compound 222]; 783
O=C1CCC2c3ccc(OCCN4CCC5(CC4)C(=O)Nc4ccc(Cl)cc45)cc3CCN12 (single isomer, unassigned) [Compound 123]; 796
Cn1c(=O)[nH]c2cc(OCCN3CCC4(CC3)C(=O)Nc3ccc(Cl)cc34)cnc21 [Compound 247]; 806
CS(=O)(=O)N1Cc2ccc(OCCN3CCC4(CC3)C(=O)Nc3ccc(Cl)cc34)cc2C1 [Compound 54]; 804
O=C(c1ccc(OCCN2CCC3(CC2)C(=O)Nc2ccc(Cl)cc23)cc1F)N1CCC1 [Compound 234]; 786

----------
Entries and their EC50
# Test system: Trypanosoma brucei Lister 427 VSG221 with APOL1 G1 recombinant protein
# experimental-protocol: APOL1 G1 trypanosome cell rescue assay (Example B5)
# Assay type: cell-based
# condition-set: Trypanosoma brucei, 20 h, read-out: APOL1 G1 Trypanosome Rescue EC50, Trypanosoma brucei Lister 427 VSG221 with APOL1 G1 recombinant protein, 20 hours, CellTiter-Glo; geometric mean of at least 2 assay runs; † = single assay run
recorded-metric: EC50 (nM)

CS(=O)(=O)c1ccc(OCCN2CCC3(CC2)C(=O)Nc2ccc(Cl)cc23)cn1 [Compound 64]; 712
O=C1Nc2ccc(Cl)cc2C12CCN(CCOc1ccc(S(=O)(=O)[C@H]3C[C@@H](O)C3)cc1)CC2 [Compound 17]; 148
C[C@@H](COc1ccc(S(C)(=O)=O)c(C(F)F)c1)N1CCC2(CC1)C(=O)Nc1ccc(C#N)cc12 (single isomer, unassigned) [Compound 212]; 103
CN=S(C)(=O)c1ccc(OCCN2CCC3(CC2)C(=O)Nc2ccc(C#N)cc23)cc1 (stereo not shown) [Compound 150]; 2290
Cc1ccc2c(c1)C1(CCN(CCOc3ccc(S(C)(=O)=O)cc3)CC1)C(=O)N2 [Compound 66]; 322
CS(=O)(=O)c1ccc(OCCN2CCC3(CC2)C(=O)Nc2ccc(Br)cc23)cc1 [Compound 72]; 177
CN(C)C(=O)C1(c2ccc(OCCN3CCC4(CC3)C(=O)Nc3ccc(C#N)cc34)cc2)COC1 [Compound 254]; 951

----------
# Tested on: HEK293 cells overexpressing APOL1 G2
# experimental-protocol: APOL1 G2 HEK293 cell rescue assay (reversal of cell death caused by overexpression of APOL1)
# Type: cell-based
# condition-set: Homo sapiens, HEK293, HEK293 overexpressing APOL1 G2; geometric mean of at least 2 assay runs; † = single assay run
// reported EC50 per item
recorded-metric: EC50 (nM)

[2H]C([2H])([2H])N1C(=O)C2(CCN(CCOc3ccc(S(C)(=O)=O)cc3)CC2)c2cc(Cl)ccc21; 78.5
CN(c1ccc(OCCN2CCC3(CC2)C(=O)Nc2ccc(C#N)cc23)cc1)S(C)(=O)=O; 114
CS(=O)(=O)Nc1ccc(OCCN2CCC3(CC2)C(=O)Nc2ccc(Cl)cc23)cc1; 79

----------
# Test system: HEK293 cells overexpressing APOL1 G2
# experimental-protocol: APOL1 G2 HEK293 cell rescue assay (reversal of cell death caused by overexpression of APOL1)
# Type: cell-based
# condition-set: Homo sapiens, HEK293, HEK293 overexpressing APOL1 G2; geometric mean of at least 2 assay runs; † = single assay run
A collection of compounds and their measured EC50
recorded-metric: EC50 (µM)

CC(O)c1ncc(OCCN2CCC3(CC2)C(=O)Nc2ccc(Cl)cc23)cn1 (centres unmarked) [Compound 284]; 0.199
CS(=O)(=O)C1CN(c2ncc(OCCN3CCC4(CC3)C(=O)Nc3ccc(Cl)cc34)cn2)C1; 0.0981
C[C@]1(O)C[C@@H](N2C(=O)CCc3cc(OCCN4CCC5(CC4)C(=O)Nc4ccc(Cl)cc45)cc(C(F)(F)F)c32)C1; 0.0123
[2H]C([2H])([2H])N1C(=O)C2(CCN(CCOc3ccc(C4CCN(S(C)(=O)=O)CC4)cc3)CC2)c2cc(Cl)ccc21; 0.0453
N#Cc1ccc2c(c1)C1(CCN(CCOc3ccc(C4CCCS4(=O)=O)cc3)CC1)C(=O)N2 (centres unmarked); 0.256

----------
# Tested on: HEK293 cells overexpressing APOL1 G2
# experimental-protocol: APOL1 G2 HEK293 cell rescue assay (reversal of cell death caused by overexpression of APOL1)
# Format: cell-based
# condition-set: Homo sapiens, HEK293, HEK293 overexpressing APOL1 G2; geometric mean of at least 2 assay runs; † = single assay run
pEC50: −log10 of the molar value.
Catalogue of pEC50 values
recorded-metric: pEC50

CN1C(=O)C2(CCN(CCOc3ccc(S(=O)(=O)CCCS(C)(=O)=O)cc3)CC2)c2cc(Cl)ccc21; 6.87
CN1C(=O)Cc2cc(OCCN3CCC4(CC3)C(=O)Nc3ccc(Cl)cc34)ccc21; 7.06
NC(=O)c1ccc(OCCN2CCC3(CC2)C(=O)Nc2ccc(Cl)cc23)cc1F; 7.14
CC(C)N1C(=O)Cc2cc(OCCN3CCC4(CC3)C(=O)Nc3ccc(C#N)cc34)ccc21; 7.09
CC(c1c(F)cc(OCCN2CCC3(CC2)C(=O)Nc2ccc(C#N)cc23)cc1F)S(C)(=O)=O (single isomer, unassigned) [Compound 138]; 7.11
Cc1cc(OCCN2CCC3(CC2)C(=O)Nc2ccc(C#N)cc23)ccc1S(C)(=O)=O; 6.85
O=C(NC1CCS(=O)(=O)C1)c1ccc(OCCN2CCC3(CC2)C(=O)Nc2ccc(Cl)cc23)cc1F (single isomer, unassigned) [Compound 242]; 7.13

----------
# Tested on: HEK293 clonal cell line overexpressing APOL1 G1
# experimental-protocol: APOL1 G1 HEK293 cell rescue assay (Example B3)
# Assay type: cell-based
# condition-set: Homo sapiens, HEK293, HEK293 clonal line overexpressing APOL1 G1; geometric mean of at least 2 runs; † = single run; ¥ = concentration at 50% rescue estimated (no sigmoidal curve)
pEC50: −log10 of the molar value.
recorded-metric: pEC50

CS(=O)(=O)C1(c2ccc(OCCN3CCC4(CC3)C(=O)Nc3ccc(C#N)cc34)cc2)CCC1 [Compound 181]; 6.71
CS(=O)(=O)c1ccc(OCCN2CCC3(CC2)C(=O)Nc2ccc(Cl)cc23)cn1 [Compound 64]; 6.29
C[C@@H](COc1ccc(S(C)(=O)=O)c(C(F)F)c1)N1CCC2(CC1)C(=O)Nc1ccc(C#N)cc12 (single isomer, unassigned) [Compound 212]; 6.72
[2H]C([2H])([2H])[C@]1(O)C[C@@H](N2C(=O)CCc3cc(OCCN4CCC5(CC4)C(=O)Nc4ccc(Cl)cc45)cnc32)C1 [Compound 461]; 7.09

----------
# Tested on: HEK293 clonal cell line overexpressing APOL1 G1
# experimental-protocol: APOL1 G1 HEK293 cell rescue assay (Example B3)
# Format: cell-based
# condition-set: Homo sapiens, HEK293, HEK293 clonal line overexpressing APOL1 G1; geometric mean of at least 2 runs; † = single run; ¥ = concentration at 50% rescue estimated (no sigmoidal curve)
pEC50: −log10 of the molar value.
In this section, each of the molecules is paired with its reported pEC50.
recorded-metric: pEC50

N#Cc1ccc2c(c1)C1(CCN(CCOc3ccc(C4(C(=O)N5CCC5)COC4)cc3)CC1)C(=O)N2; ~5.36
CS(=O)(=O)C1(c2ccc(OCCN3CCC4(CC3)C(=O)Nc3ccc(C#N)cc34)cc2)CC2(COC2)C1; ~5.24
CS(=O)(=O)c1ccc(OCCN2CCC3(CC2)C(=O)Nc2c(C#N)cc(Cl)cc23)cc1; ~4.94
N#Cc1ccc2c(c1)C1(CCN(CCOc3cnc(CCO)nc3)CC1)C(=O)N2; ~5.00
